Subject of test: UniProt P51681
Sequence (P51681 whole entry): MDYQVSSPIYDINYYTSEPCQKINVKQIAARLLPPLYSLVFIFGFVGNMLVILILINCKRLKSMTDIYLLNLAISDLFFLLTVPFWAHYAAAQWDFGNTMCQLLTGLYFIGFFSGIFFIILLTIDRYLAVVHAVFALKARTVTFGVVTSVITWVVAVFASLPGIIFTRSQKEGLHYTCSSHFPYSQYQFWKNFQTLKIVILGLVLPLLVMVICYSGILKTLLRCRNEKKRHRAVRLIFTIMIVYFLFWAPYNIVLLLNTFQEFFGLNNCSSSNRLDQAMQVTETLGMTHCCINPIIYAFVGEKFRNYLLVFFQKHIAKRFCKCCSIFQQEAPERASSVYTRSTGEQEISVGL
Protocol text: Inhibition test on the binding of RANTES to CCR5 (RANTES-induced transient increase of Ca ion) in CCR5/CHO cells
Where a name gives a salt, the structure may show the parent alone.
Quantity kind: pIC50
Answer as the number alone; pIC50 is minus log10 of concentration in mol/L.

Query block: Value lookup for pIC50; key = COc1ccc(CN2CCC(c3ccc(CNC(=O)c4ccc(Cl)cc4)cc3)CC2)cc1OC [Example 1, hydrochloride]
Result block: 5.38
